measured-target: human CB1 receptor (Homo sapiens, UniProt P21554)
Sequence (P21554 whole entry): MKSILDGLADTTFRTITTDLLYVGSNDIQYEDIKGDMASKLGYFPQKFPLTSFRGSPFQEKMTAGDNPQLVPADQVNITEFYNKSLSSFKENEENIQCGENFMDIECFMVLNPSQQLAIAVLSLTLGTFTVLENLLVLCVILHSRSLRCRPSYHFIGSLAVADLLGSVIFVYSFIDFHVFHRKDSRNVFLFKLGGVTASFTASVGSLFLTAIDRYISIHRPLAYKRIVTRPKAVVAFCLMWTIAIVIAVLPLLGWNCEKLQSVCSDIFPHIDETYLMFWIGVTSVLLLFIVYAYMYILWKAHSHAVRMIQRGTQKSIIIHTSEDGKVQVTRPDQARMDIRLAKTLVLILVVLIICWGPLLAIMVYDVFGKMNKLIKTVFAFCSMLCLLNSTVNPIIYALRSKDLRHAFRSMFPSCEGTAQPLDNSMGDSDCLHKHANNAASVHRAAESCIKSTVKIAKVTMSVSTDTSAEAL
assay-protocol: CB1 receptor antagonism, agonist-induced cAMP modulation (HTRF) in transfected CHO cells
condition-summary: read-out: Antag IC50
pIC50: −log10 of the molar value.
readout-kind: pIC50

Some solved entries appear below for comparison.
Q: Find the measured pIC50 of Cc1cc(-c2c(-c3ccccc3)nc(N)n3c(=O)n(Cc4ccc(F)cn4)nc23)cc(C)n1 with human CB1 receptor (Homo sapiens, UniProt P21554) as test system.
A: < 5.31

Q: Find the measured pIC50 of COc1cc(-c2c(-c3ccccc3)nc(N)n3c(=O)n(CCC(F)(F)F)nc23)cc(CO)n1 with human CB1 receptor (Homo sapiens, UniProt P21554) as test system.
A: < 4.00

Next:
Q: Find the measured pIC50 of Cc1ccc(Cn2nc3c(-c4cc(C)nc(CO)c4)c(-c4ccccc4)nc(N)n3c2=O)nc1 with human CB1 receptor (Homo sapiens, UniProt P21554) as test system.
A: 4.40

---

measured-target: human adenosine A1 receptor (Homo sapiens, UniProt P30542)
Construct: expressed in transfected cells; host or cells: HEK293 cells infected with BacMam (the same paragraph also labels the preparation CHO-hA1)
Sequence (P30542 whole entry): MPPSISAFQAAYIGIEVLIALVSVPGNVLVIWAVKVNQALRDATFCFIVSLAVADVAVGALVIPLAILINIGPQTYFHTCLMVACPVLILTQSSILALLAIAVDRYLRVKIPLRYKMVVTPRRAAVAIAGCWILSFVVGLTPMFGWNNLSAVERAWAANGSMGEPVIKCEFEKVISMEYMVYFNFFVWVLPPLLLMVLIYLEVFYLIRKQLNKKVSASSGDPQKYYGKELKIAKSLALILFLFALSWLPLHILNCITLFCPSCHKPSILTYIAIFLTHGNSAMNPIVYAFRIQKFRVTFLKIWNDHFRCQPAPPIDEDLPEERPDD
assay-protocol: Inhibition binding assay, human adenosine A1 receptor membranes, [3H]DPCPX
condition-summary: 1 nM [3H]DPCPX, 25° C., 1 h; IC50 converted to Ki with Cheng-Prusoff; read-out: A1 pKi (converted)
readout-kind: Ki (nM)

Some solved entries appear below for comparison.
Q: Give the value of Ki reported for the following: Cc1cc(-c2c(-c3ccccc3)nc(N)n3c(=O)n(Cc4ccc(F)c(N)n4)nc23)cc(C)n1
A: 100

Q: Give the value of Ki reported for the following: [2H]c1c([2H])c([2H])c(-c2nc(N)n3c(=O)n(CCC(F)(F)F)nc3c2-c2cc(C)nc(CO)c2)c([2H])c1[2H]
A: 631

A = Cc1cc(-c2c(-c3ccccc3)nc(N)n3c(=O)n(C[C@H]4CN(C(=O)OC(C)(C)C)CCO4)nc23)cc(C)n1
B = Cc1cc(-c2c(-c3ccccc3)nc(N)n3c(=O)n(CC(C)C)nc23)cc(C)n1
Q: Compare reported Ki values for A and B . Which is lower? Please indicate the selected item by its label.
A: A
(A: 501 nM, B: 1000 nM)

---

measured-target: human adenosine A1 receptor (Homo sapiens, UniProt P30542)
Construct: expressed in transfected cells; host or cells: HEK293 cells infected with BacMam (the same paragraph also labels the preparation CHO-hA1)
assay-protocol: Inhibition binding assay, human adenosine A1 receptor membranes, [3H]DPCPX
condition-summary: 1 nM [3H]DPCPX, 25° C., 1 h; IC50 converted to Ki with Cheng-Prusoff; read-out: A1 pKi (converted)
readout-kind: Ki (nM)

Q: Find the measured Ki of COC(=O)CCN1CCC(CCn2nc3c(-c4cc(C)nc(C)c4)c(-c4ccccc4)nc(N)n3c2=O)CC1 with human adenosine A1 receptor (Homo sapiens, UniProt P30542) as test system.
A: 398

Q: Find the measured Ki of Cc1cc(-c2c(-c3ccccc3)nc(N)n3c(=O)n(Cc4ccccc4SC(F)F)nc23)cc(C)n1 with human adenosine A1 receptor (Homo sapiens, UniProt P30542) as test system.
A: 1

1 = Cc1cc(-c2c(-c3ccccc3)nc(N)n3c(=O)n(C)nc23)cc(C)n1
2 = Cc1cc(-c2c(-c3ccccc3)nc(N)n3c(=O)n(C[C@H]4COCCN4)nc23)cc(C)n1
Q: Between 1 and 2 , whose recorded Ki is greater? Please indicate the selected item by its label.
A: 2
(2: 631 nM, 1: 200 nM)
